- Test system: 323965-272-R-J2-PDC complex spheroid growth, % test/control;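 also: compound exposure lasted 7 days starting three days after spheroid seeding; 100% = DMSO vehicle control wells with viability set relative to vehicle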
- Test details: Anticancer human tumor 323965-272-R-J2-PDC patient-derived pancreatic carcinoma cell line growth inhibition [Asc]
- Study conditions: second compound 0.1 µM; first compound 3.16 µM; hits give low values
Exercise: for every item that follows, state its recorded viability, T/C.
Reply numerically in %, unit not repeated.

Consider the molecule O=C(c1cc(Cc2n[nH]c(=O)c3ccccc23)ccc1F)N1CCN(C(=O)C2CC2)CC1 + CNC(C)C(=O)NC1CN(S(=O)(=O)c2cccc(S(=O)(=O)N3CCC4CCC(C(=O)NC(c5ccccc5)c5ccccc5)N4C(=O)C(NC(=O)C(C)NC)C3)c2)CCC2CCC(C(=O)NC(c3ccccc3)c3ccccc3)N2C1=O and give its measured viability, T/C.
94.5

Consider the molecule O=C(c1cc(Cc2n[nH]c(=O)c3ccccc23)ccc1F)N1CCN(C(=O)C2CC2)CC1 + Cc1c(S(C)(=O)=O)c(-c2cc(F)cc(N3CCN(c4ccc(NS(=O)(=O)c5ccc(NC(CCN6CCC(C(=O)OCCCP(=O)(O)O)CC6)CSc6ccccc6)c(S(=O)(=O)C(F)(F)F)c5)cc4)CC3)c2)c(-c2ccc(Cl)cc2)n1C(C)C and give its measured viability, T/C.
95

Consider the molecule C=CC(=O)N1CCN(c2nc(=O)n(-c3c(C)ccnc3C(C)C)c3nc(-c4c(O)cccc4F)c(F)cc23)C(C)C1 (centres undefined) + Cc1c(S(C)(=O)=O)c(-c2cc(F)cc(N3CCN(c4ccc(NS(=O)(=O)c5ccc(NC(CCN6CCC(C(=O)OCCCP(=O)(O)O)CC6)CSc6ccccc6)c(S(=O)(=O)C(F)(F)F)c5)cc4)CC3)c2)c(-c2ccc(Cl)cc2)n1C(C)C and give its measured viability, T/C.
66.7

Consider the molecule C=CC(=O)N1CCN(c2nc(=O)n(-c3c(C)ccnc3C(C)C)c3nc(-c4c(O)cccc4F)c(F)cc23)C(C)C1 (centres undefined) + CNC(C)C(=O)NC1CN(S(=O)(=O)c2cccc(S(=O)(=O)N3CCC4CCC(C(=O)NC(c5ccccc5)c5ccccc5)N4C(=O)C(NC(=O)C(C)NC)C3)c2)CCC2CCC(C(=O)NC(c3ccccc3)c3ccccc3)N2C1=O and give its measured viability, T/C.
63.9

Source: PubChem BioAssay AID1963425
